These data points were gathered from paper PMC9571937.

# target under test: Mtb ThyX (Mycobacterium tuberculosis)
# Sequence (P9WG57 whole entry): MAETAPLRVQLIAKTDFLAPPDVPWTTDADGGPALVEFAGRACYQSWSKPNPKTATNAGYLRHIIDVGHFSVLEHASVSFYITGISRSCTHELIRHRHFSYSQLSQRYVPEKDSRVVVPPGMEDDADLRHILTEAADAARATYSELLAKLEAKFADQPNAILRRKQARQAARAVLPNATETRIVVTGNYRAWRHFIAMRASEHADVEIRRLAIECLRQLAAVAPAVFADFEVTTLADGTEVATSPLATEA
# method description: M. tuberculosis ThyX NADPH oxidase assay
# Assay type: biochemical
# setup conditions: 200 μM compound, NADPH oxidase assay, 50 µM FAD; read-out: Inhibition % (Mtb ThyX)
Hi, to clarify the labels: true (1) covers inhibition at 200 µM from 20% upward, false (0) covers anything below 20%.

>>> df
                                   compound  class_name
0  O=c1[nH]c2c(nc3ccccn32)c(=O)n1Cc1ccc(C(F)(F)F)cc1 [Compound 10c]    true (1)
1  O=c1[nH]c2c(nc3ccccn32)c(=O)n1-c1ccc(Cl)cc1    true (1)
2  CCCCCCNC(=O)NCC#Cc1ccn2c(c1)nc1c(=O)n(-c3ccc(F)cc3)c(=O)[nH]c12 [Compound 20g]   false (0)
3     O=c1c2nc3ccccn3c2[nH]c(=S)n1Cc1ccccc1   false (0)
4  O=c1[nH]c2c(nc3cc(Br)ccn32)c(=O)n1-c1ccc(F)cc1 [Compound 19a]   false (0)
5  O=c1[nH]c2c(nc3ccc(-c4ccc(F)cc4)cn32)c(=O)n1-c1ccc(F)cc1 [Compound 23e]    true (1)
6  O=c1[nH]c2c(nc3ccccn32)c(=O)n1-c1ccc(F)c(F)c1    true (1)
7  COc1ccc(-n2c(=O)[nH]c3c(nc4ccccn43)c2=O)cc1   false (0)
